# target: ATX in human plasma (Homo sapiens)
# Construct: blank plasma was derived from at least 6 individual people
# assay-remarks: Analysis in vitro: detection of LPA in human plasma for screening activity (LPA 18:2 by LC/MS/MS)
# details: incubated 2 hours at 37° C., LPA 18:2 detected by LC/MS/MS
pIC50: −log10 of the molar value.
reported-property: pIC50

# smiles-entry, pIC50
measured = [
    ("CCc1nc2sc(N3CC[C@H](N(C)CC(=O)N4CC(C(=O)O)C4)C3)nn2c1N(C)c1nc(-c2ccc(F)cc2)c(C#N)s1", "6.30 to 7.00"),
    ("CCc1nc2sc(N3CC[C@@H](N(C)C(=O)N4CC(O)C4)C3)nn2c1N(C)c1nc(-c2ccc(F)cc2)c(C#N)s1", "6.30 to 7.00"),
]

Alright, here's another molecule for you.
Endpoint output: pIC50 of CCc1nc2sc(N3CCC4(CC3)CN(CC(=O)N3CC(O)C3)C4)nn2c1N(C)c1nc(-c2ccc(F)cc2)c(C#N)s1 . Value?
7.00 to 11.00

* * *

# target: ATX in human plasma (Homo sapiens)
# Construct: blank plasma was derived from at least 6 individual people
# assay-remarks: Analysis in vitro: detection of LPA in human plasma for screening activity (LPA 18:2 by LC/MS/MS)
# details: incubated 2 hours at 37° C., LPA 18:2 detected by LC/MS/MS
# Procedure: Analysis In Vitro: Detection of LPA in Human Plasma for Screening Activity Principle: LPC in plasma being used as a substrate, the produced LPA 18:2 (LPA 17:0 as an internal standard) is detected by LC/MS/MS quantitative analysis. […] Experiment procedures: blank plasma was derived from at least 6 individual people. […] LPA 18:2 was detected by LC/MS/MS and IC50 values were analyzed and calculated by software, seeing Table 2.
A collection of molecules and their measured IC50

# molecule, IC50
rows = [
    ("CCc1nc2sc(N3CC4CCN(CC(=O)N5CC(O)C5)C4C3)nn2c1N(C)c1nc(-c2ccc(F)cc2)c(C#N)s1 (stereo not shown)", "100 to 500 nM"),
    ("CCc1nc2sc(N3C[C@@H]4C[C@H]3CN4CC(=O)N3CC(O)C3)nn2c1N(C)c1nc(-c2ccc(F)cc2)c(C#N)s1", "0.01 to 100 nM"),
    ("CCc1nc2sc(N3CCC(C(=O)N4CC(O)C4)CC3)nn2c1N(C)c1nc(-c2ccc(F)cc2)c(C#N)s1", "100 to 500 nM"),
    ("CCc1nc2sc(N3CCC4(CN(CC(=O)N5CC(C#N)C5)C4)C3)nn2c1N(C)c1nc(-c2ccc(F)cc2)c(C#N)s1", "100 to 500 nM"),
    ("CCc1nc2sc(N3CCC[C@H](N(C)CC(=O)N4CC(O)C4)C3)nn2c1N(C)c1nc(-c2ccc(F)cc2)c(C#N)s1", "0.01 to 100 nM"),
]

Which IC50 is reported for this molecule? CCc1nc2sc(N3CC4CC3CO4)nn2c1N(C)c1nc(-c2ccc(F)cc2)c(C#N)s1 (stereo not shown)
≥ 1000 nM

Bench note: what IC50 did CCc1nc2sc(N3CCC(N(C)CC(=O)NCC(=O)OC)C3)nn2c1N(C)c1nc(-c2ccc(F)cc2)c(C#N)s1 (stereo not shown) show?
100 to 500 nM

* * *

# target: ATX in human plasma (Homo sapiens, UniProt Q13822)
# Construct: blank plasma was derived from at least 6 individual people
# assay-remarks: Analysis in vitro: detection of LPA in human plasma for screening activity (LPA 18:2 by LC/MS/MS)
# details: incubated 2 hours at 37° C., LPA 18:2 detected by LC/MS/MS
pIC50: −log10 of the molar value.
Here, each record is paired with measured pIC50 data.

Solved cases (6 shown):
# compound, pIC50
records = [
    ("CCc1nc2sc(N3CC[C@@H](N(C)C(N)=O)C3)nn2c1N(C)c1nc(-c2ccc(F)cc2)c(C#N)s1", "6.30 to 7.00"),
    ("CCc1nc2sc(N3CCCC(N(C)CC(=O)N4CC(O)C4)C3)nn2c1N(C)c1nc(-c2ccc(F)cc2)c(C#N)s1 (stereo not shown)", "7.00 to 11.00"),
    ("CCc1nc2sc(N3CCC(N(C)CC(=O)NCC(=O)O)C3)nn2c1N(C)c1nc(-c2ccc(F)cc2)c(C#N)s1 (stereo not shown)", "6.30 to 7.00"),
    ("CCc1nc2sc(N3CC[C@H](N(C)CC(=O)N4CCOCC4)C3)nn2c1N(C)c1nc(-c2ccc(F)cc2)c(C#N)s1", "6.30 to 7.00"),
    ("CCc1nc2sc(N3CC[C@H](N(C)CC(=O)N4CC(C#N)C4)C3)nn2c1N(C)c1nc(-c2ccc(F)cc2)c(C#N)s1", "7.00 to 11.00"),
    ("CCc1nc2sc(N3CCC[C@@H](N(C)CC(=O)N4CC(O)C4)C3)nn2c1N(C)c1nc(-c2ccc(F)cc2)c(C#N)s1", "6.30 to 7.00"),
]

Attention now turns to another entry.
API: value(readout=pIC50, system=ATX in human plasma (Homo sapiens, UniProt Q13822)) for record CCc1nc2sc(N3C[C@@H](C)N(CC(=O)N4CC(O)C4)C[C@H]3C)nn2c1N(C)c1nc(-c2ccc(F)cc2)c(C#N)s1
6.30 to 7.00

* * *

For ATX (Homo sapiens), measured IC50 is reported for the entries below.

# molecule, data-value
data = [
    ("CCc1nc2sc(N3CCC(N(C)C(=O)N4CC(O)C4)C3)nn2c1N(C)c1nc(-c2ccc(F)cc2)c(C#N)s1 (stereo not shown)", "0.01 to 100 nM"),
    ("CCc1nc2sc(N3CCC(N(C)CC(=O)N4CC(O)C4)C3)nn2c1N(C)c1nc(-c2ccc(F)cc2)c(C#N)s1 (stereo not shown)", "0.01 to 100 nM"),
    ("CCc1nc2sc(N3CCC[C@@H](N(C)CC(=O)N4CC(O)C4)C3)nn2c1N(C)c1nc(-c2ccc(F)cc2)c(C#N)s1", "100 to 500 nM"),
    ("CCc1nc2sc(N3CC[C@H](N(C)CC(=O)N4CC(O)C4)C3)nn2c1N(C)c1nc(-c2ccc(F)cc2)c(C#N)s1", "0.01 to 100 nM"),
    ("CCc1nc2sc(N3CCN(CC(=O)N4CC(O)C4)[C@@H](C(=O)OC)C3)nn2c1N(C)c1nc(-c2ccc(F)cc2)c(C#N)s1", "100 to 500 nM"),
]

API: value(readout= IC50, system= ATX (Homo sapiens), query= CCc1nc2sc(N3CCCC(N(C)S(C)(=O)=O)C3)nn2c1N(C)c1nc(-c2ccc(F)cc2)c(C#N)s1 (stereo not shown) )
100 to 500 nM

Recall the recorded IC50 for CCc1nc2sc(N3CC4(C3)CN(S(C)(=O)=O)C4)nn2c1N(C)c1nc(-c2ccc(F)cc2)c(C#N)s1 with ATX (Homo sapiens) and state it.
500 to 1000 nM

* * *

# target: ATX (Homo sapiens)
// IC50 lookup, one value per entry

See these solved cases before continuing.
# molecule, target, IC50
rows = [
    ("CCc1nc2sc(N3CCC(N(C)C(N)=O)C3)nn2c1N(C)c1nc(-c2ccc(F)cc2)c(C#N)s1 (stereo not shown)", "ATX (Homo sapiens)", "0.01 to 100 nM"),
    ("CCc1nc2sc(N3CC[C@@H](N(C)CC(=O)N4CC(C#N)C4)C3)nn2c1N(C)c1nc(-c2ccc(F)cc2)c(C#N)s1", "ATX (Homo sapiens)", "100 to 500 nM"),
    ("CCc1nc2sc(N3CCC(N(C)C(=O)N4CCOCC4)C3)nn2c1N(C)c1nc(-c2ccc(F)cc2)c(C#N)s1 (stereo not shown)", "ATX (Homo sapiens)", "100 to 500 nM"),
    ("CCc1nc2sc(N3CC[C@H](N(C)CC(=O)N4CC(F)C4)C3)nn2c1N(C)c1nc(-c2ccc(F)cc2)c(C#N)s1", "ATX (Homo sapiens)", "0.01 to 100 nM"),
    ("CCc1nc2sc(N3CCC(N(C)CC(=O)N4CCOCC4)C3)nn2c1N(C)c1nc(-c2ccc(F)cc2)c(C#N)s1 (stereo not shown)", "ATX (Homo sapiens)", "0.01 to 100 nM"),
]

What value of IC50 has been recorded for this entry: CCc1nc2sc(N3CCN(CC(=O)N4CC(O)C4)[C@H](C(=O)NC)C3)nn2c1N(C)c1nc(-c2ccc(F)cc2)c(C#N)s1
500 to 1000 nM

Quick one: IC50 of CCc1nc2sc(N3CCC4(CC3)CN(C(N)=O)C4)nn2c1N(C)c1nc(-c2ccc(F)cc2)c(C#N)s1 ?
100 to 500 nM
